B1: VH:VL chains; a variant is named by its letters at X, in order (parent)
chain 1: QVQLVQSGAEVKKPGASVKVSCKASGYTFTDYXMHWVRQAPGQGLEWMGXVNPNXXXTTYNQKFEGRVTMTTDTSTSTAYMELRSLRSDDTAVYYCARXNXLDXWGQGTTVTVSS
chain 2: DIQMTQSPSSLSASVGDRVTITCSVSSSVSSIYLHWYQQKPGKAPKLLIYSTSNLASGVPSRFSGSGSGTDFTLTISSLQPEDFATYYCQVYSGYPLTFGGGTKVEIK

Variants of: B1
run_description: yeast display scFab, FACS + sequencing
test_readout: non-specific binding call

Worked cases, answers included:
FKKGSSAA = binds
YTGTSAVV = no binding
YRGKGALA = binds
YKAGDAGD = no binding
DKTGDAAV = no binding
VRGGGAAY = no binding
YRERGSAV = binds
YKGKGAWY = binds
FKGRGALA = binds
YRARGSGY = binds

# query: non-specific binding call of entry VRAGDDVF
no binding

# query: non-specific binding call of entry VTGGDSSD
no binding

FYI, the data here is from the emibetuzumab library of Makowski et al. (2022).
